The entries below come with measured IC50 values attached.
Molecular target: Recombinant wild type LRRK2 protein (Homo sapiens, UniProt Q5S007)
Sequence (Q5S007 whole entry): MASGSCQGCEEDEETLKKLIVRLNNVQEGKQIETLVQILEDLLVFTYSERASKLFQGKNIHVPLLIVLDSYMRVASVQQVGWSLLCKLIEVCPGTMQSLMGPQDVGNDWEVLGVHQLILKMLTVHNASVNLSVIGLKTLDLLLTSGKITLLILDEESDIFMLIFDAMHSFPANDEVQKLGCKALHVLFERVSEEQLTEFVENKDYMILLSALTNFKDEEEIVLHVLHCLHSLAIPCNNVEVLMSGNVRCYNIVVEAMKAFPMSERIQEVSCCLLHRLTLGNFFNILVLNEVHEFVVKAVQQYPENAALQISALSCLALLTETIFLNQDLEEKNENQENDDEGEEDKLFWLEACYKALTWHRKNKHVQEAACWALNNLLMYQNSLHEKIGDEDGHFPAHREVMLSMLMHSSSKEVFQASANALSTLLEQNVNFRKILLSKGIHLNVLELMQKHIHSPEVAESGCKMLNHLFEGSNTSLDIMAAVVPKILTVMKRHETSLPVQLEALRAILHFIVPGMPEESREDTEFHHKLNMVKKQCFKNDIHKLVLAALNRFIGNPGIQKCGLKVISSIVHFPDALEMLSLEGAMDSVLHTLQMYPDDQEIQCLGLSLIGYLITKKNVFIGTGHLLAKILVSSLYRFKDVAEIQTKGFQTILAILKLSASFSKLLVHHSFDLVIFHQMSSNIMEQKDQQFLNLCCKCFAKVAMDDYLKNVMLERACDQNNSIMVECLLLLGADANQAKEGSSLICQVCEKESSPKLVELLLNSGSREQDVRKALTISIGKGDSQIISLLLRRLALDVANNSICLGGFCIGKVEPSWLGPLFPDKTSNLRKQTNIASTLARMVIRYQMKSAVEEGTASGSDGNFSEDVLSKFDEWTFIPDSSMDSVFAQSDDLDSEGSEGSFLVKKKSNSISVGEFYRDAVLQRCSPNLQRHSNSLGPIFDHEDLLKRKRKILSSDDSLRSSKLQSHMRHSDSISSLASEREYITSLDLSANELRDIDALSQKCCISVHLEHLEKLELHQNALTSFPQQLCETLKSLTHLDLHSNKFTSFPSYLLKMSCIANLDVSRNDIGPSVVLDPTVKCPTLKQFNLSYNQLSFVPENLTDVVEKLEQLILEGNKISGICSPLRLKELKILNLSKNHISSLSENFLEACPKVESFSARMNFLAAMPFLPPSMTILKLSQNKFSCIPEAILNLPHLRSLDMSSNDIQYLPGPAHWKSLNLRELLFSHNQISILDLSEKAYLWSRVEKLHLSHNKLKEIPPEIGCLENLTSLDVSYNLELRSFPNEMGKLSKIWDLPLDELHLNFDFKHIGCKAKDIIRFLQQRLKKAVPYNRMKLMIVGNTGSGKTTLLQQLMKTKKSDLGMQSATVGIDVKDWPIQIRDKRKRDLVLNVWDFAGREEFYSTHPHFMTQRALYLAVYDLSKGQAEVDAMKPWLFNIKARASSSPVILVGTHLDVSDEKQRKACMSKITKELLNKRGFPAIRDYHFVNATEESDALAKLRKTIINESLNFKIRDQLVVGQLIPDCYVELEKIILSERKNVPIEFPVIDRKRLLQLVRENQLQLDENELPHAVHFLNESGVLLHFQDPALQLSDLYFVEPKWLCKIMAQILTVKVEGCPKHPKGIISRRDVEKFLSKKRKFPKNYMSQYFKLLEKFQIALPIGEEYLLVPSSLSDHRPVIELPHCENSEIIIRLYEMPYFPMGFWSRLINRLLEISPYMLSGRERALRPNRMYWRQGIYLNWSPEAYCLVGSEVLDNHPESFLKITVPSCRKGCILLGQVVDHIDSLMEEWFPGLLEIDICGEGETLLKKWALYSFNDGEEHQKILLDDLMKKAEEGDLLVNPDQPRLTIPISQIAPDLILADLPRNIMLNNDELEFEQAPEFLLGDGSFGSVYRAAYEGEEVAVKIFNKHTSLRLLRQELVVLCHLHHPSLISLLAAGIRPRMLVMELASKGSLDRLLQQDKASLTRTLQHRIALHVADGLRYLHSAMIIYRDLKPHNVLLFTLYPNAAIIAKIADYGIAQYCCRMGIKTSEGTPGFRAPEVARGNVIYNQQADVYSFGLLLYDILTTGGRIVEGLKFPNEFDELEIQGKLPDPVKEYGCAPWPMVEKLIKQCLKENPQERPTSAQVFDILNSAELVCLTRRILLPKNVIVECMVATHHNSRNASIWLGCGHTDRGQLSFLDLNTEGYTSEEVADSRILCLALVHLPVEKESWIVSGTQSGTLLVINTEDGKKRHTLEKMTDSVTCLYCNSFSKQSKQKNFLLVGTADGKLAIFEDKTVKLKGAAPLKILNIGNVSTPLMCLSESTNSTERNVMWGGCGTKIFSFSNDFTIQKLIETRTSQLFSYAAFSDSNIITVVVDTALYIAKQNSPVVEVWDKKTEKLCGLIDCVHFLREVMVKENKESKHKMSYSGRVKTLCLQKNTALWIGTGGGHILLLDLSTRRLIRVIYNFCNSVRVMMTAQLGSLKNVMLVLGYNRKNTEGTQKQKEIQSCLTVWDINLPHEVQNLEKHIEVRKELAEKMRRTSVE
Assay: LRRK2 kinase activity assay (LanthaScreen TR-FRET), wild type
Settings: 400 nM LRRKtide, 25 μM ATP, 60 min at room temperature; read-out: LRRK2 WT IC50

The examples below pair each entry with its known result.
compound: CC1=C(C(=O)Nc2ccc3[nH]nc(C)c3c2)C(C)(C)n2nnnc2N1C
measuredEndpoint: IC50
reportedMeasurement: 100 to 1000 nM
--
compound: CC(=O)Nc1[nH]nc2ccc(NC(=O)C3=C(C)N(C)c4nnnn4C3)cc12
measuredEndpoint: IC50
reportedMeasurement: > 10000 nM
--
compound: CC1=C(C(=O)Nc2cc3c[nH]nc3cc2C(N)=O)Cn2nnnc2N1C
measuredEndpoint: IC50
reportedMeasurement: 1000 to 10000 nM
--
compound: CCC1C(C(=O)Nc2ccc3[nH]ncc3c2)=C(C)N(C)c2nnnn21 (single isomer, unassigned) [Example 8a]
measuredEndpoint: IC50
reportedMeasurement: 100 to 1000 nM

Record CC1=C(C(=O)Nc2ccc3[nH]nc(-c4ccncc4)c3c2)Cn2nnnc2N1C . Reported IC50: ≤ 100 nM

====

Biological target: Recombinant G2019S-LRRK2 protein (Homo sapiens, UniProt Q5S007, G2019S)
Construct: purchased Life Technologies PV4881
Sequence (Q5S007 970-2527 G2019S limits assumed): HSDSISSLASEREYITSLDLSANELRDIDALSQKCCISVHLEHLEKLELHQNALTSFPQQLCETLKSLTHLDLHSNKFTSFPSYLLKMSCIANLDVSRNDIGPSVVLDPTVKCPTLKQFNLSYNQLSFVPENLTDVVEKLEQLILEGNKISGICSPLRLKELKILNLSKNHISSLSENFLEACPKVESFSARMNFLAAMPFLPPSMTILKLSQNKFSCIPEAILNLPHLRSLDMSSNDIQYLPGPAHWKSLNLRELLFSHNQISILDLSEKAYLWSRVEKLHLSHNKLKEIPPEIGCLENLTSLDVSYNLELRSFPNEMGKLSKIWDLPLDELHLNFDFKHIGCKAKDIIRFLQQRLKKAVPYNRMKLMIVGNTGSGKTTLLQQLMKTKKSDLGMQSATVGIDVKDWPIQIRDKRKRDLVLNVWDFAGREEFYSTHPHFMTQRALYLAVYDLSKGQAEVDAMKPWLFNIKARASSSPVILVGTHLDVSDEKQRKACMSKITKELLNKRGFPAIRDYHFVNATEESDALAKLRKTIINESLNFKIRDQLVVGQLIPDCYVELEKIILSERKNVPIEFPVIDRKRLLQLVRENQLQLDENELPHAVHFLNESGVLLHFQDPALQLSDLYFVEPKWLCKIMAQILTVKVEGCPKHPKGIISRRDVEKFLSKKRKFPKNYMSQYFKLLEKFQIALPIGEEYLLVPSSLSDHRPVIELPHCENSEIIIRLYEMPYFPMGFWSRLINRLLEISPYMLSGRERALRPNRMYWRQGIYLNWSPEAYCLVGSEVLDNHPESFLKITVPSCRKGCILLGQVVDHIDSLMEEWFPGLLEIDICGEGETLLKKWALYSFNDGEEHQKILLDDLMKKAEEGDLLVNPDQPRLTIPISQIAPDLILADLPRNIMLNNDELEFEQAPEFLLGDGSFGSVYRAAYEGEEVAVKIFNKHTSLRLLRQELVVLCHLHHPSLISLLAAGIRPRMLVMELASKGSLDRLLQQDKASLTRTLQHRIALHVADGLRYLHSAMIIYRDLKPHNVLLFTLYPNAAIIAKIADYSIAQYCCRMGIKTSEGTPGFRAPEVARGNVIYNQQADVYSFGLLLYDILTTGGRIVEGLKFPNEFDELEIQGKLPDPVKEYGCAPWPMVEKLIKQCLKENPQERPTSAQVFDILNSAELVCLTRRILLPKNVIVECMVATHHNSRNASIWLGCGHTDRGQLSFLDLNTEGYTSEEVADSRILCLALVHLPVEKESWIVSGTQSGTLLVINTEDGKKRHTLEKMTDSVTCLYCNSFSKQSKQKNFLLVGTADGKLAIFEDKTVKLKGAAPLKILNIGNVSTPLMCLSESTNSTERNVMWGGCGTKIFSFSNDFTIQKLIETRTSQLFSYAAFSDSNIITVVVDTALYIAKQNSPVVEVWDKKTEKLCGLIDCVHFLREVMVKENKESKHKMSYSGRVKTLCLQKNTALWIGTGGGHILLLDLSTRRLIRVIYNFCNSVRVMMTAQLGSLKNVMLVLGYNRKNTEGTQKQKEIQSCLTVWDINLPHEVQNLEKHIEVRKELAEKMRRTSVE
Assay: LRRK2 kinase activity assay (LanthaScreen TR-FRET), G2019S mutant
Format: biochemical
Settings: 400 nM LRRKtide, 25 μM ATP, 60 min at room temperature
The entries below come with measured IC50 values attached.

compound: CC1=C(C(=O)Nc2cc3c[nH]nc3cc2C(N)=O)Cn2nnnc2N1C
assayedSystem: Recombinant G2019S-LRRK2 protein (Homo sapiens, UniProt Q5S007, G2019S)
measuredEndpoint: IC50
reportedMeasurement: 1000 to 10000 nM

compound: CC1=C(C(=O)Nc2ccc3[nH]ncc3c2F)Cn2nnnc2N1C
assayedSystem: Recombinant G2019S-LRRK2 protein (Homo sapiens, UniProt Q5S007, G2019S)
measuredEndpoint: IC50
reportedMeasurement: 100 to 1000 nM

compound: CC1=C(C(=O)Nc2ccc3[nH]nc(-c4ccnc(N5CCOCC5)c4)c3c2)[C@@H](C)n2nnnc2N1C (single isomer, unassigned) [Example 24a]
assayedSystem: Recombinant G2019S-LRRK2 protein (Homo sapiens, UniProt Q5S007, G2019S)
measuredEndpoint: IC50
reportedMeasurement: ≤ 100 nM

Record CC1=C(C(=O)Nc2ccc3n[nH]c(NC(=O)Cc4ccc(N(C)C)cc4)c3c2)Cn2nnnc2N1C . Reported IC50: 100 to 1000 nM

Record CC1=C(C(=O)Nc2ccc3[nH]nc(-c4cc(N5CCOCC5)ncn4)c3c2)Cn2nnnc2N1C . Reported IC50: ≤ 100 nM

Record CC1=C(C(=O)Nc2ccc3c(N)nccc3c2)[C@@H](C)n2nnnc2N1C . Reported IC50: ≤ 100 nM

Record COc1cc2n[nH]cc2cc1NC(=O)C1=C(C)N(C)c2nnnn2C1 . Reported IC50: 1000 to 10000 nM

Record CC1=C(C(=O)Nc2ccc3[nH]c(=O)n(C)c3c2)[C@@H](C)n2nnnc2N1C . Reported IC50: ≤ 100 nM

====

Target: Recombinant wild type LRRK2 protein (Homo sapiens, UniProt Q5S007)
Assay: LRRK2 kinase activity assay (LanthaScreen TR-FRET), wild type
Settings: 400 nM LRRKtide, 25 μM ATP, 60 min at room temperature; read-out: LRRK2 WT IC50
The entries below come with measured IC50 values attached.

The examples below pair each entry with its known result.
molecule: CC1=C(C(=O)Nc2cc3c[nH]nc3cc2N)C(C)n2nnnc2N1C (stereo not drawn)
IC50: 1000 to 10000 nM
//
molecule: CC1=C(C(=O)Nc2ccc3cn[nH]c3c2)Cn2nnnc2N1C
IC50: 1000 to 10000 nM

Proceeding to the next molecule to report its IC50.
Record CCC1C(C(=O)Nc2ccc3[nH]ncc3c2)=C(C)N(C)c2nnnn21 (single isomer, unassigned) [Example 8b] . Reported IC50: 100 to 1000 nM

Ref: patent US20210261553A1
